measuredTarget: eCry3.1Ab hybrid insecticidal protein
assayRemarks: direct ELISA: eCry3.1Ab coated at 1 ug/ml, RGS-His HRP detection
I'd appreciate it if you could supply Binding (OD 450 nm) values for the items below.
Answer as a quantity: numeral, then unit.

For each of the items listed, what is its Binding (OD 450 nm)?
1. synNAPS13 variant V26A (designed binder) RGSHHHHHHGSMVKVKFKRWGEEKEVDTSKILHVLRAGKYVRFSYDDNGKLGAGYVTEKDAPKELLDMLARAEREKK
2. synNAPS13 variant W9A (designed binder) RGSHHHHHHGSMVKVKFKRAGEEKEVDTSKILHVLRVGKYVRFSYDDNGKLGAGYVTEKDAPKELLDMLARAEREKK
3. synNAPS13 variant L40A (designed binder) RGSHHHHHHGSMVKVKFKRWGEEKEVDTSKILHVLRVGKYVRFSYDDNGKAGAGYVTEKDAPKELLDMLARAEREKK
4. synNAPS-13 ligand (designed binder) MVKVKFKRWGEEKEVDTSKILHVLRVGKYVRFSYDDNGKLGAGYVTEKDAPKELLDMLARAEREKK

1. 1.8 OD 450 nm
2. 1 OD 450 nm
3. 0.5 OD 450 nm
4. 4.1 OD 450 nm

Record Binding (OD 450 nm) per entry; entries follow.
1. synNAPS13 variant T46A (designed binder) RGSHHHHHHGSMVKVKFKRWGEEKEVDTSKILHVLRVGKYVRFSYDDNGKLGAGYVAEKDAPKELLDMLARAEREKK
2. synNAPS13 variant L24A (designed binder) RGSHHHHHHGSMVKVKFKRWGEEKEVDTSKILHVARVGKYVRFSYDDNGKLGAGYVTEKDAPKELLDMLARAEREKK

1. 4.1 OD 450 nm
2. 1.1 OD 450 nm

Origin of measurements: patent US20210181204A1
